- target-system: Tubulin
- test-name: Concentration required to reduce the amount of pelleted tubulin
I'd appreciate it if you could supply pIC50 values for the items below.
One number for each entry, as −log10 of the molar value.

Solved entries:
- COc1ccc(C[C@H]2NC(=O)/C=C/C[C@@H]([C@H](C)[C@H]3O[C@@H]3c3ccccc3)OC(=O)[C@H](CC(C)C)OC(=O)[C@H](C)CNC2=O)cc1Cl: 5.43
- COc1ccc(C[C@H]2NC(=O)/C=C/C[C@@H]([C@H](C)[C@H]3O[C@@H]3c3ccccc3)OC(=O)[C@H](CC(C)C)OC(=O)CCNC2=O)cc1: 4.82

Okay, now this molecule:
Suppose we examine the molecule `COc1ccc(C[C@H]2NC(=O)/C=C/C[C@@H]([C@H](C)[C@H]3O[C@@H]3c3ccc(C(=O)c4ccccc4)cc3)OC(=O)[C@H](CC(C)C)OC(=O)CCNC2=O)cc1` ; what pIC50 value has been reported?
5.13
